This listing pairs compounds with measured melting point.
Measured quantity: melting point

{"columns": ["Compound", "Measured quantity", "Result"],
 "data": [
  ["Cc1cc2c(cc1C(=O)N1c3ccc(Cl)cc3CC1C)[nH]c(=O)c1nnc(C3CCOCC3)n12.Cl (centres unmarked)", "melting point", "324 to 326 °C"],
  ["COC1CC(c2nnc3c(=O)[nH]c4cc(C(=O)N5CCc6cc(Cl)ccc65)c(C)cc4n23)C1.Cl (centres unmarked)", "melting point", "200 to 202 °C"],
  ["COc1cc2c(cn1)N(C(=O)c1cc3[nH]c(=O)c4cnc(C5CCOCC5)n4c3cc1F)CC2", "melting point", "275 to 277 °C"],
  ["COc1cc2c(cn1)N(C(=O)c1cc3[nH]c(=O)c4cnc(C5CCCOC5)n4c3cc1C)CC2 (centres unmarked)", "melting point", "297 to 299 °C"],
  ["Cc1cc2c(cc1C(=O)N1CCc3cc(F)ccc31)[nH]c(=O)c1cnc([C@@H]3CCC[C@@H]3O)n12", "melting point", "197 to 199 °C"],
  ["Cc1cc2c(cc1C(=O)N1CCc3cc(Br)cnc31)[nH]c(=O)c1cnc([C@@H]3CCC[C@@H]3O)n12 (racemic)", "melting point", "296 to 303 °C"],
  ["COCc1cc2c(cc1C(=O)N1CCc3cc(Br)cnc31)[nH]c(=O)c1nnc(CC3CC3)n12", "melting point", "168 to 170 °C"],
  ["COc1cc2c(cn1)N(C(=O)c1cc3[nH]c(=O)c4cnc(C5CCOCC5)n4c3cc1Cl)CC2", "melting point", "314 to 316 °C (dec.)"]
]}
